# Study target: human TRPA1 (Homo sapiens, UniProt O75762)
# Sequence (O75762 whole entry): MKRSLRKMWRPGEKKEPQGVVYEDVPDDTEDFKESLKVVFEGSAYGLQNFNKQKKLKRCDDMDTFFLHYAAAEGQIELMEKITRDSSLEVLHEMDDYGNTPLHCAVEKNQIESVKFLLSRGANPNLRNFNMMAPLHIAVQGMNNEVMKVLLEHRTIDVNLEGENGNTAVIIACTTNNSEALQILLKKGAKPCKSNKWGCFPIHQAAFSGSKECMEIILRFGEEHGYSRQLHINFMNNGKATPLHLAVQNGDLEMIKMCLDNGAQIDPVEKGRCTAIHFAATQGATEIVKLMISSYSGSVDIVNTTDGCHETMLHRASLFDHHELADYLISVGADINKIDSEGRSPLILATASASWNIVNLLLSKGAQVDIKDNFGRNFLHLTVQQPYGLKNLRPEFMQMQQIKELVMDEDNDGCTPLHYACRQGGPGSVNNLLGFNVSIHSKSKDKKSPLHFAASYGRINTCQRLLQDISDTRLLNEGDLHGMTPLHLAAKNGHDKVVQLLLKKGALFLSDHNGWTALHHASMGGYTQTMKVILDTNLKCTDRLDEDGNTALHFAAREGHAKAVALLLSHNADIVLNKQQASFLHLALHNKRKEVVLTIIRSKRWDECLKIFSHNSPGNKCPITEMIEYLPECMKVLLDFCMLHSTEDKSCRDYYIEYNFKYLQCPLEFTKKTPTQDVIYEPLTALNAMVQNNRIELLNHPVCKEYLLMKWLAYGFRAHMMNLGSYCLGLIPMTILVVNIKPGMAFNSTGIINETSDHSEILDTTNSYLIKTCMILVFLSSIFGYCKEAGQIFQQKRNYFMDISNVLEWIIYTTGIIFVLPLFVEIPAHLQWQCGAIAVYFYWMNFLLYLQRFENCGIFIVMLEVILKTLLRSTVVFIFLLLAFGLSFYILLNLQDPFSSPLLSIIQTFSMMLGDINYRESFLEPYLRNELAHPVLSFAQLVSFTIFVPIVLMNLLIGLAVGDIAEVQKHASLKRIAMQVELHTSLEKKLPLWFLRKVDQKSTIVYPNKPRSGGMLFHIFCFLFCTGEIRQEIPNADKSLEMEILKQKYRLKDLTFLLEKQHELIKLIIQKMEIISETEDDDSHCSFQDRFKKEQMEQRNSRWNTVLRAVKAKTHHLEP
# Experiment notes: FLIPR Ca2+ flux assay
# Format: cell-based
# Recorded conditions: concn tested 100 nM; normalized to Emax of AITC (300 μM)
Value type: hTRPA1% activation (%)

Molecule	Recorded measurement
O=C(NC1CCC2CCCCC2C1)c1ccc(-c2ccccc2)cc1 (centres unmarked) [Compound 10]	−1.1
O=C(NC1CCCCCC1)c1ccc(-c2ccccc2)cc1 [Compound 5]	0.1
O=C(NC1CCC2(CCCCC2)CC1)c1ccc(-c2ccccc2)cc1 [Compound 13]	0.2
O=C(NC1CCc2ccccc2C1)c1ccc(-c2ccccc2)cc1 (centres unmarked) [Compound 11]	−0.1
O=C(NC1CCCCCCC1)c1ccc(-c2ccccc2)cc1 [Compound 7]	−1.0

====

# Study target: human TRPV1 (Homo sapiens)
# Sequence (Q8NER1 whole entry): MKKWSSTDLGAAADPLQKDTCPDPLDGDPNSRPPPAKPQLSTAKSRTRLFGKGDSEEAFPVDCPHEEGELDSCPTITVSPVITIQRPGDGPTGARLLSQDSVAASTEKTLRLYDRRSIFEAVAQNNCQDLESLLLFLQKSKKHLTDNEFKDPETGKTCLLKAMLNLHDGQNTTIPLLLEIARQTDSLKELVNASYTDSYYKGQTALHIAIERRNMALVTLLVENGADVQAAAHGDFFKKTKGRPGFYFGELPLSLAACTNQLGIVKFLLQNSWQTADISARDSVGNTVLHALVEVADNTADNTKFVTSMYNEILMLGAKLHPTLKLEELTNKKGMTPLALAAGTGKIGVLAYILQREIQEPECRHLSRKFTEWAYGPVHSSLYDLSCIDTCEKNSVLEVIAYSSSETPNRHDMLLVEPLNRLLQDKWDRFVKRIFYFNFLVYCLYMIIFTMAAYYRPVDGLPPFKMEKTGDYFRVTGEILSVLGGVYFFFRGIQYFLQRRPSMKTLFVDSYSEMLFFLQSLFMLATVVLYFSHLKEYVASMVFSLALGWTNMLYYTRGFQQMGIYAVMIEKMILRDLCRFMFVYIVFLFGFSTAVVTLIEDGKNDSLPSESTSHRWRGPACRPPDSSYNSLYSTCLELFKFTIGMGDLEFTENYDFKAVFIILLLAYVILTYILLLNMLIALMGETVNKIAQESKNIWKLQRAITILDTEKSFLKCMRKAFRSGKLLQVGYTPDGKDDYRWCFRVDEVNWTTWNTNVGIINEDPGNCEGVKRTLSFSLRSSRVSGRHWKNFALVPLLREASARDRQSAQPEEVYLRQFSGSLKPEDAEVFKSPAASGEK
# Experiment notes: FLIPR Ca2+ flux assay
# Type: cell-based
# Recorded conditions: concn tested 1 μM; normalized to Emax of capsaicin (3 μM)
# hTRPV1% activation per record follows

Compound	hTRPV1% activation (%)
O=C(NC1CCCCCC1)c1ccc(-c2ccccc2)cc1	0.6
O=C(NC1CCC2(CCCCC2)CC1)c1ccc(-c2ccccc2)cc1	0.7
O=C(NC1CCc2ccccc2C1)c1ccc(-c2ccccc2)cc1 (stereo not shown)	−0.7
O=C(NC1CCCCCCC1)c1ccc(-c2ccccc2)cc1	−3.2

====

# Study target: human TRPA1 (Homo sapiens)
# Experiment notes: FLIPR Ca2+ flux assay
# Type: cell-based
# Recorded conditions: concn tested 1 μM; normalized to Emax of AITC (300 μM)

Compound	hTRPA1% activation
O=C(NC1CCC2(CCCCC2)CC1)c1ccc(-c2ccccc2)cc1	−0.2 ± 1.1%
O=C(NC1CCc2ccccc2C1)c1ccc(-c2ccccc2)cc1 (stereo not shown)	−0.8 ± 0.6%
O=C(NC1CCCCCCC1)c1ccc(-c2ccccc2)cc1	−1.5 ± 0.9%
O=C(NC1CCCCCC1)c1ccc(-c2ccccc2)cc1	0.8 ± 0.5%

====

# Study target: human TRPA1 (Homo sapiens, UniProt O75762)
# Experiment notes: FLIPR Ca2+ flux assay
# Recorded conditions: read-out: TRPA1 IC50; vs AITC (10 μM)-activated [Ca2+]i release

Compound	IC50 / nM
Cl.Cl.Cl.Cl.Cl.Cl.N.N.N.N.N.N.N.N.N.N.N.N.N.N.[O-2].[O-2].[Ru+3].[Ru+3].[Ru+4] [ruthenium red, reference compound]	162

These data points were gathered from paper PMC7153518.
